# System: HBMEC cells
# ASSAY_COMMENT: Blood–brain barrier transport study in HBMEC Transwell monolayer
# DETAILS: RootExt 20 µg mL^−1 apical; 2 h; n.q. = not quantified in the basolateral compartment

# COMPOUND, SYSTEM_UNDER_TEST, RootExt Te (%) ± SD 2 h
measured = [
    ("C=C1CC[C@H]2O[C@]2(C)CC[C@@H]2[C@@H]1CC2(C)C [(–)-caryophyllene oxide]", "HBMEC cells", "n.q."),
    ("COc1ccc(C=O)c(O)c1 [4-methoxysalicylaldehyde]", "HBMEC cells", "n.q."),
    ("O=C(O)/C=C/c1ccc(O)cc1 [4-coumaric acid]", "HBMEC cells", "n.q."),
    ("O=C(O)C=Cc1cc(O)ccc1O [2,5-dihydroxycinnamic acid]", "HBMEC cells", "n.q."),
    ("O=C(O)c1cccc(O)c1O [2,3-dihydroxybenzoic acid]", "HBMEC cells", "21.4 ± 5.3%"),
    ("O=Cc1ccc(O)cc1 [4-hydroxybenzaldehyde]", "HBMEC cells", "62.1 ± 21.9%"),
    ("COc1cc(/C=C/C(=O)O)ccc1O [Ferulic acid]", "HBMEC cells", "n.q."),
    ("O=Cc1ccc(O)c(O)c1 [Protocatechuic aldehyde]", "HBMEC cells", "n.q."),
]
